Tested on: HeLa Kyoto
testProtocol: melting temperature (median over replicates), in situ; higher = more thermally stable
details: cell cycle stage: mitosis
measuredAttribute: melting temperature (°C)
Numbers only; they are read as °C.

Enquiry: Notebook: pull reported melting temperature for HeLa Kyoto, entry MGAVWSALLVGGGLAGALFVWLLRGGPGDTGKDGDAEQEKDAPLGGAAIPGGHQSGSSGLSPGPSGQELVTKPEHLQESNGHLISKTKDLGKLQAASWRLQNPSREVCDNSREHVPSGQFPDTEAPATSETSNSRSYSEVSRNESLESPMGEWGFQKGQEISAKAATCFAEKLPSSNLLKNRAKEEMSLSDLNSQDRVDHEEWEMVPRHSSWGDVGVGGSLKAPVLNLNQGMDNGRSTLVEARGQQVHGKMERVAVMPAGSQQVSVRFQVHYVTSTDVQFIAVTGDHECLGRWNTYIPLHYNKDGFWSHSIFLPADTVVEWKFVLVENGGVTRWEECSNRFLETGHEDKVVHAWWGIH [STBD1]
Return: 50.3

====

# maps each entry to its solubility change mitosis (log2)
Test system: HeLa Kyoto
testProtocol: solubility change mitosis vs G1/S (difference of NP-40 vs SDS log2 ratios) (log2 ratio difference); higher = more soluble in mitosis
A bare number is all that is needed in reply.

Study these solved cases before continuing.
>>> observedmeasurement("MIPLLLAALLCVPAGALTCYGDSGQPVDWFVVYKLPALRGSGEAAQRGLQYKYLDESSGGWRDGRALINSPEGAVGRSLQPLYRSNTSQLAFLLYNDQPPQPSKAQDSSMRGHTKGVLLLDHDGGFWLVHSVPNFPPPASSAAYSWPHSACTYGQTLLCVSFPFAQFSKMGKQLTYTYPWVYNYQLEGIFAQEFPDLENVVKGHHVSQEPWNSSITLTSQAGAVFQSFAKFSKFGDDLYSGWLAAALGTNLQVQFWHKTVGILPSNCSDIWQVLNVNQIAFPGPAGPSFNSTEDHSKWCVSPKGPWTCVGDMNRNQGEEQRGGGTLCAQLPALWKAFQPLVKNYQPCNGMARKPSRAYKI [DNASE2]")
-0.0918
>>> observedmeasurement("MTGLYELVWRVLHALLCLHRTLTSWLRVRFGTWNWIWRRCCRAASAAVLAPLGFTLRKPPAVGRNRRHHRHPRGGSCLAAAHHRMRWRADGRSLEKLPVHMGLVITEVEQEPSFSDIASLVVWCMAVGISYISVYDHQGIFKRNNSRLMDEILKQQQELLGLDCSKYSPEFANSNDKDDQVLNCHLAVKVLSPEDGKADIVRAAQDFCQLVAQKQKRPTDLDVDTLASLLSSNGCPDPDLVLKFGPVDSTLGFLPWHIRLTEIVSLPSHLNISYEDFFSALRQYAACEQRLGK [NUS1]")
0.162

Kindly consider the entry below.
Enquiry: Which solubility change mitosis (log2) value is on record for MISRHLQNNLMSVDPASSQAMELSDVTLIEGVGNEVMVVAGVVVLILALVLAWLSTYVADSGSNQLLGAIVSAGDTSVLHLGHVDHLVAGQGNPEPTELPHPSEGNDEKAEEAGEGRGDSTGEAGAGGGVEPSLEHLLDIQGLPKRQAGAGSSSPEAPLRSEDSTCLPPSPGLITVRLKFLNDTEELAVARPEDTVGALKSKYFPGQESQMKLIYQGRLLQDPARTLRSLNITDNCVIHCHRSPPGSAVPGPSASLAPSATEPPSLGVNVGSLMVPVFVVLLGVVWYFRINYRQFFTAPATVSLVGVTVFFSFLVFGMYGR [TMUB2] ?
Return: -0.108
